- tested-system: A*0203 (Homo sapiens, UniProt P04439, A173T/D140Y/D185E/D98H/E277Q/G131W/G231S/I119V/I121R/I166T/I218V/L180W/L300P/L318F/N151K/N90K/P208A/P217A/Q86G/Q94H/R138H/R169H/T345S)
- assay-explanation: biochemical
- Assay type: binding
No end group written: not given here.
Using IC50 as the sorting value, the categories are 1: < 8 nM; 2: ≥ 8 nM and < 400 nM; 3: ≥ 400 nM

sequence-record	cat
RVLQQLLFV [Peptide 1545.05]	2
AIFGVNPTI [Peptide 86.0178]	2
RTLQLLLFV [Peptide 1525.25]	3
FLGALKSFV [Peptide 1593.56]	1
ILQHTQELFI [Peptide 9013.0212]	3
VLGEAMSQA [Peptide 1539.08]	2
FLSYFKLFL [Peptide 1578.37]	2
ALNTTYLWWV [Peptide 9013.0217]	1
VLAEAMSKA [Peptide 1539.07]	1
MTANPPIPV [Peptide 1539.01]	1
RLENAILFTA [Peptide 1578.51]	3
VLAEAMSRV [Peptide 1516.10]	1

Data provenance: patent US9340577B2
